- System: NCI-H1944;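 further: CTB read-out in 384-well plates, triplicate wells, NPI normalised per plate against 1 µM phenylarsine oxide (0) and 0.1% DMSO (1) controls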
- Test method notes: normalised cell viability (NPI; 0 = phenylarsine oxide control, 1 = DMSO control) (fraction of DMSO control); NCI-H1944 is a non-small cell lung cancer line; higher = more viable cells (less compound toxicity)
- Measurement setup: glucocorticoid arm: hydrocortisone 2.75 uM co-treatment; compound 5 µM; 6 days
Counter-ions that a name gives are not always drawn. Over roughly 1,900 compounds, “normalised cell viability (NPI; 0 = phenylarsine oxide control, 1 = DMSO control)” has its median near 1; the lowest 2% begin near 0.039. The entries come from a sample that favours the lowest values as a whole.
Assay readout: normalised cell viability
Kindly provide the number alone.

INPUT: Return reported normalised cell viability. Input compound: Oc1cc2c(cc1O)[C@H]1c3ccccc3CN[C@@H]1CC2 (racemic) [Dihydrexidine hydrochloride]
OUTPUT: 0.995

INPUT: Answer with the recorded normalised cell viability of O=C(N[C@H]1CN2CCC1CC2)c1ccc(Cl)cc1 only.
OUTPUT: 1.01

INPUT: Provide only the value of recorded normalised cell viability for C=CCN1CC[C@]23CCCC[C@H]2[C@H]1Cc1ccc(O)cc13 [Levallorphan tartrate]
OUTPUT: 1

INPUT: Report normalised cell viability for COc1ccc2c(c1)[C@@]13CCCC[C@H]1[C@@H](C2)NCC3 [3-Methoxymorphinan hydrochloride]
OUTPUT: 0.989

Recorded values, source the supplement of paper PMC8285479.
